Every entry's value here was drawn from patent US6344321.

Target: HGF (hepatocyte growth factor/scatter factor) (UniProt P14210;P14210 P14210:32-494,P14210:495-728)
Sequence (P14210 32-494, chain 1 of 2): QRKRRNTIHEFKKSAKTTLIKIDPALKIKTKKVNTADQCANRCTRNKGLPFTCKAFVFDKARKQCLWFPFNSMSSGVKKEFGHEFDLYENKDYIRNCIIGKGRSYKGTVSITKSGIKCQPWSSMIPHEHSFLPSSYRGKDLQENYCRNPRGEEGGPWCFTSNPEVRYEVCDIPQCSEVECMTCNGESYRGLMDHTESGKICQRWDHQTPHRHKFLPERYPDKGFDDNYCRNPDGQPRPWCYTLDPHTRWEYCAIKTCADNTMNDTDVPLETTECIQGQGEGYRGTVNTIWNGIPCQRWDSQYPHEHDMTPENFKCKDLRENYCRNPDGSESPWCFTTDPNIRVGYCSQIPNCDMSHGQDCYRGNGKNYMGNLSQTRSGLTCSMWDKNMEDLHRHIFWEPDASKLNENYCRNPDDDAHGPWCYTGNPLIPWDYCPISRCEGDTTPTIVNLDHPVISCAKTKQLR
Sequence (P14210 495-728, chain 2 of 2): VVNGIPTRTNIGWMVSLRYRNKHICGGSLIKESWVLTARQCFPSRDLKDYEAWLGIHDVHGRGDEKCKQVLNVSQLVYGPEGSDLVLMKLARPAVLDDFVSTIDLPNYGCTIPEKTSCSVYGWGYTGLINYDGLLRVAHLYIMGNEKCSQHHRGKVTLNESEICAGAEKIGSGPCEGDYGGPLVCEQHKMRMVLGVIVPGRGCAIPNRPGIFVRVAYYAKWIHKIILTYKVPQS
Experiment: filter; HBSMC, 37C
Conditions: tags: R&D Systems
quantity: pKd
Notebook: values listed as pKd are -log10 of the concentration (mol/L).

10-16 (ssRNA, 2'-F pyrimidines) RNA: GGGAGAUAAGAAUAAACGCUCAAUACAGCGUGUUGGUCCCGGACGGGGACUUAUUUCGACAGGAGGCUCACAACAGGC :: 9.68
11-7 (ssRNA, 2'-F pyrimidines) RNA: GGGAGGACGAUGCGGGUGGAGUCAAAUCGUCUUGUCCCUUGUCCUCAGACGACUCGCCCGA :: 9.96
8-119 (ssRNA, 2'-F pyrimidines) RNA: GGGAGGACGAUGCGGGCCAUUCGAUCGAUUCUCCGCCGGAUCGUGCAGACGACUCGCCCGA :: 9.96
8-126 (ssRNA, 2'-F pyrimidines) RNA: GGGAGGACGAUGCGGGUGACUCAAAAUGGUGAUCCUCGUUUCCGCCAGACGACUCGCCCGA :: 10.00

Next binder, please.
Look up pKd: 11-157 (ssRNA, 2'-F pyrimidines) RNA: GGGAGGACGAUGCGGUCAGAAUGACUUUCAUAGCACGCUUUCCCCAGACGACUCGCCCGA
9.59
